Origin of the recorded values: patent US10597388B2

Tested on: barnyardgrass (Echinochloa crus-galli)
Assay Procedure: Test C greenhouse herbicide test, pre- and postemergence
Format: in vivo
Measurement Conditions: Preemergence, 250 g ai/ha; scale 0 to 100, 0 no effect, 100 complete control
Measure Name: Barnyardgrass plant response rating

>  <Structure String>
Cn1nc(Br)c(O)c(-c2cccc3ccccc23)c1=O

>  <Value>
85

$$$$
>  <Structure String>
CCc1oc2ccc(C)cc2c1-c1c(O)c(C)nn(C)c1=O

>  <Value>
5

$$$$
>  <Structure String>
Cc1nn(C)c(=O)c(-c2ccc(Br)c3ccccc23)c1O

>  <Value>
85

$$$$
>  <Structure String>
Cc1sc2ccccc2c1-c1c(O)c(Cl)nn(C)c1=O

>  <Value>
65

$$$$
>  <Structure String>
COC(=O)Oc1cnn(C)c(=O)c1-c1c(C)sc2ccccc12

>  <Value>
35

$$$$
>  <Structure String>
CC(=O)Oc1c(C)nn(C)c(=O)c1-c1c(C)sc2ccc(C(F)(F)F)cc12

>  <Value>
45

$$$$
>  <Structure String>
Cc1cc(C)c2ccccc2c1-c1c(O)c(C)nn(C)c1=O

>  <Value>
100

$$$$
